Assayed target: Homeodomain-interacting protein kinase 2 (Homo sapiens) (UniProt Q9H2X6)
Sequence (Q9H2X6 whole entry, looked up): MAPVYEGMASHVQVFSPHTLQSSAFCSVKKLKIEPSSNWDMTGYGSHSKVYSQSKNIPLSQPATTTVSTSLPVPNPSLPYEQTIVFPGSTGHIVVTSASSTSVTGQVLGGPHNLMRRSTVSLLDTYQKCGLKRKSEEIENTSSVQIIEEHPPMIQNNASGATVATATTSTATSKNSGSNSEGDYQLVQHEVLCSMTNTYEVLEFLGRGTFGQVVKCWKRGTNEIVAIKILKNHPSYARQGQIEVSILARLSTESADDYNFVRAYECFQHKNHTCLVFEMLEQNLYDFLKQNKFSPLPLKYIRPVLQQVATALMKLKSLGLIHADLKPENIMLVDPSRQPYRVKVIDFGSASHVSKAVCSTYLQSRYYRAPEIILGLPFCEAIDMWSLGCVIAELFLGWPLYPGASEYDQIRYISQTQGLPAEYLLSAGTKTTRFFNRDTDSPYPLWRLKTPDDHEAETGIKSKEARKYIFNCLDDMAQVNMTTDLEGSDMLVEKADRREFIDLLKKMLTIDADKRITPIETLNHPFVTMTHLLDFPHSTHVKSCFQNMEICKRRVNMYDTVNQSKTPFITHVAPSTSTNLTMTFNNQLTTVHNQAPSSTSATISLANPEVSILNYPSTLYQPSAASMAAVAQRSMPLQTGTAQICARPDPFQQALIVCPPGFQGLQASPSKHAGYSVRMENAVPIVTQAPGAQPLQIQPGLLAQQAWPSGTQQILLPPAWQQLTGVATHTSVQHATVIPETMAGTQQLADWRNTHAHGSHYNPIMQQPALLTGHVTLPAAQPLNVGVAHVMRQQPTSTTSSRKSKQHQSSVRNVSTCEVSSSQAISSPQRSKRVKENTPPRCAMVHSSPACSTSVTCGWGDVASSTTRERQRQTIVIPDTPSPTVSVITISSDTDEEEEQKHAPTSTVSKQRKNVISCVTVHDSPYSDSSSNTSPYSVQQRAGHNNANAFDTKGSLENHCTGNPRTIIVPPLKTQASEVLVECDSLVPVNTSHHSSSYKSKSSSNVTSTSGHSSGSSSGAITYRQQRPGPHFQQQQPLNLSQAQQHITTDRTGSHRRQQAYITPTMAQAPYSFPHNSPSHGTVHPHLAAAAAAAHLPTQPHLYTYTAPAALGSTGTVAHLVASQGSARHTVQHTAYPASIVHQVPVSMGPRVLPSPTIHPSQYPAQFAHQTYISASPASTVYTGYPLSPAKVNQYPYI
Assay info: Inhibition of HIPK2 (unknown origin) assessed as residual enzyme activity at 10 uM

Mol	Assayed target	Activity [%]
COc1cccc(OC)c1C(=O)Nc1c[nH]nc1C(=O)N[C@H]1CC[C@H](OC)CC1	Homeodomain-interacting protein kinase 2 (Homo sapiens) (UniProt Q9H2X6)	100
CO[C@H]1CC[C@H](NC(=O)c2n[nH]cc2NC(=O)c2ccccc2)CC1	Homeodomain-interacting protein kinase 2 (Homo sapiens) (UniProt Q9H2X6)	14
COc1cccc(OC)c1C(=O)Nc1c[nH]nc1C(=O)NCc1ccccc1	Homeodomain-interacting protein kinase 2 (Homo sapiens) (UniProt Q9H2X6)	93
CO[C@H]1CC[C@H](NC(=O)c2n[nH]cc2NC(=O)c2ccc(-c3ccccc3)o2)CC1	Homeodomain-interacting protein kinase 2 (Homo sapiens) (UniProt Q9H2X6)	4

---

Assay info: Inhibition of Trypanosoma brucei GSK3 using biotinylated GSP2 substrate by flashplate assay
pIC50: −log10 of the molar value.
# key: entry, value: pIC50
Readout name: pIC50

Molecule	Readout name	Recorded number
CO[C@H]1CC[C@H](NC(=O)c2n[nH]cc2NC(=O)c2ccccc2F)CC1	pIC50	7.70
CO[C@H]1CC[C@H](NC(=O)c2n[nH]cc2NC(=O)c2cc3ccccn3n2)CC1	pIC50	7.20
COc1cccc(OC)c1C(=O)Nc1c[nH]nc1C(=O)NC1CC2CCC1C2 (stereo unspecified)	pIC50	7.74
CO[C@H]1CC[C@H](NC(=O)c2n[nH]cc2NC(=O)c2ccccc2)CC1	pIC50	7.62
CO[C@H]1CC[C@H](NC(=O)c2n[nH]cc2NC(=O)c2ccccc2C(F)(F)F)CC1	pIC50	7.74
COc1cccc(OC)c1C(=O)Nc1c[nH]nc1C(=O)NCCN1CCCC1	pIC50	6.49
COc1cccc(OC)c1C(=O)Nc1c[nH]nc1C(=O)N[C@H]1CC[C@H](OC)CC1	pIC50	8.70
COc1cccc(OC)c1C(=O)Nc1c[nH]nc1C(=O)NC1CC1	pIC50	7.92
COc1cccc(OC)c1C(=O)Nc1c[nH]nc1C(=O)NN1CCOCC1	pIC50	7.09
CO[C@H]1CC[C@H](NC(=O)c2n[nH]cc2NC(=O)c2cc3ccccc3o2)CC1	pIC50	7.89
CO[C@H]1CC[C@H](NC(=O)c2n[nH]cc2NC(=O)c2ncoc2-c2ccccc2)CC1	pIC50	6.04

---

Assay info: Inhibition of Trypanosoma brucei GSK3 using biotinylated GSP2 substrate by flashplate assay
# key: entry, value: IC50

Mol	Value unit	Bound type	IC50
CO[C@H]1CC[C@H](NC(=O)c2n[nH]cc2NC(=O)Cc2ccccc2F)CC1	nM	=	390
CO[C@H]1CC[C@H](NC(=O)c2n[nH]cc2NC(=O)Cc2c(Cl)cccc2Cl)CC1	nM	=	230
COc1cccc(OC)c1C(=O)Nc1c[nH]nc1C(=O)N[C@H]1CC[C@H](O)CC1	nM	=	2
COC(=O)c1n[nH]cc1NC(=O)c1c(OC)cccc1OC	nM	=	520
CO[C@H]1CC[C@H](NC(=O)c2n[nH]cc2NC(=O)c2ccc(N3CCCC3)cc2)CC1	nM	=	19
COc1cccc(OC)c1C(=O)Nc1c[nH]nc1C(=O)O	nM	>	50000
COc1cccc(OC)c1C(=O)Nc1c[nH]nc1C(=O)NCc1ccccc1	nM	=	1
COc1cccc(OC)c1C(=O)Nc1c[nH]nc1C(=O)Nc1ccccn1	nM	=	320
CO[C@H]1CC[C@H](NC(=O)c2n[nH]cc2NC(=O)c2ccc(OC(F)F)cc2)CC1	nM	=	16
COc1cccc(OC)c1C(=O)Nc1c[nH]nc1C(=O)NC1CCCCC1	nM	=	1

---

Collected EC50 values appear next to each entry.
System: MRC5
Assay info: Cytotoxicity against human MRC5 cells assessed as growth inhibition after 72 hrs
Assay type: cell-based
Assay context: MRC5, 72 h

Compound	EC50
COc1cccc(OC)c1C(=O)Nc1c[nH]nc1C(=O)NC1CC1	> 50 µM
COc1cccc(OC)c1C(=O)Nc1c[nH]nc1C(=O)NCCN1CCOCC1	> 50 µM
CO[C@H]1CC[C@H](NC(=O)c2n[nH]cc2NC(=O)c2cc(Cl)cc(Cl)c2)CC1	13 µM
CO[C@H]1CC[C@H](NC(=O)c2n[nH]cc2NC(=O)C2CCC(F)(F)CC2)CC1	> 50 µM
COc1cccc(OC)c1C(=O)Nc1c[nH]nc1C(=O)NC1CCN(Cc2ccccc2)C1 (stereo unspecified)	38 µM
COc1cccc(OC)c1C(=O)Nc1c[nH]nc1C(=O)NCc1ncccc1C	> 50 µM
COc1cccc(OC)c1C(=O)Nc1c[nH]nc1C(=O)NCCN1CCCC1	> 50 µM
CO[C@H]1CC[C@H](NC(=O)c2n[nH]cc2NC(=O)c2ccc(N3CCCC3)cc2)CC1	> 50 µM
CCCCCNC(=O)c1n[nH]cc1NC(=O)c1c(OC)cccc1OC	> 50 µM
COc1cccc(OC)c1C(=O)Nc1c[nH]nc1C(=O)Nc1ccccc1	> 50 µM
CO[C@H]1CC[C@H](NC(=O)c2n[nH]cc2NC(=O)c2cc3ccccn3n2)CC1	1 µM

---

Test system: Trypanosoma brucei brucei
Assay info: Trypanocidal activity against bloodstream stage of Trypanosoma brucei brucei assessed as inhibition of proliferation after 72 hrs
Format: functional, organism-based
pEC50: −log10 of the molar value.

Mol	pEC50
COc1ccccc1CC(=O)Nc1c[nH]nc1C(=O)N[C@H]1CC[C@H](OC)CC1	4.66
CO[C@H]1CC[C@H](NC(=O)c2n[nH]cc2NC(=O)c2ccccc2Nc2cccc(C)c2C)CC1	5.24
COc1cccc(OC)c1C(=O)Nc1c[nH]nc1C(=O)NC1CC1	4.72
CO[C@H]1CC[C@H](NC(=O)c2n[nH]cc2NC(=O)c2cnc3ccccn23)CC1	5.59
CO[C@H]1CC[C@H](NC(=O)c2n[nH]cc2NC(=O)C2CCOCC2)CC1	4.49

---

Assayed target: Cyclin-dependent kinase 2 (Homo sapiens)
Assay info: Inhibition of CDK2 (unknown origin) assessed as residual enzyme activity at 10 uM

Mol	Activity (%)
CO[C@H]1CC[C@H](NC(=O)c2n[nH]cc2NC(=O)c2ccc(-c3ccccc3)o2)CC1	1
CO[C@H]1CC[C@H](NC(=O)c2n[nH]cc2NC(=O)c2ccccc2)CC1	1
COc1cccc(OC)c1C(=O)Nc1c[nH]nc1C(=O)N[C@H]1CC[C@H](OC)CC1	9
COc1cccc(OC)c1C(=O)Nc1c[nH]nc1C(=O)NCc1ccccc1	38

---

Assayed target: Glycogen synthase kinase-3 (Homo sapiens, UniProt P49840+P49841)
Assay info: Inhibition of human GSK3 using biotinylated GSP2 substrate by flashplate assay
Assay type: protein assay
Below, each entry is listed alongside its reported IC50.
Readout name: IC50 (nM)

Compound	Bound type	Recorded number
CO[C@H]1CC[C@H](NC(=O)c2n[nH]cc2NC(=O)c2ccc(F)cc2F)CC1	<	5
COCCNC(=O)c1n[nH]cc1NC(=O)c1c(OC)cccc1OC	=	300
CO[C@H]1CC[C@H](NC(=O)c2n[nH]cc2NC(=O)c2cnc3ccccn23)CC1	<	5
COc1cccc(OC)c1C(=O)Nc1c[nH]nc1C(=O)NC1CCN(Cc2ccccc2)C1 (stereo not given)	=	80
CO[C@H]1CC[C@H](NC(=O)c2n[nH]cc2NC(=O)c2ccc(N3CCCC3)cc2)CC1	<	5
COc1cccc(OC)c1C(=O)Nc1c[nH]nc1C(=O)Nc1ccccn1	=	940
COc1cccc(OC)c1C(=O)Nc1c[nH]nc1C(=O)NC1CCCCC1	=	50
COC(=O)c1n[nH]cc1NC(=O)c1c(OC)cccc1OC	=	4500
CCCCCNC(=O)c1n[nH]cc1NC(=O)c1c(OC)cccc1OC	=	100
COc1cccc(OC)c1C(=O)Nc1c[nH]nc1C(=O)NCc1ccccn1	=	320

---

Assay info: Selectivity ratio, ratio of IC50 for human CDK2/cyclin A to IC50 for Trypanosoma brucei GSK3
Readout name: Ratio IC50

Mol	Bound type	Recorded number
CO[C@H]1CC[C@H](NC(=O)c2n[nH]cc2NC(=O)c2ccc(N3CCN(C)CC3)cc2)CC1	=	14
COc1cccc(OC)c1C(=O)Nc1c[nH]nc1C(=O)NCCN1CCOCC1	>	190
CO[C@H]1CC[C@H](NC(=O)c2n[nH]cc2NC(=O)c2c(C)nc3ccccn23)CC1	=	22
COc1ccccc1CC(=O)Nc1c[nH]nc1C(=O)N[C@H]1CC[C@H](OC)CC1	=	1.7
COc1cccc(OC)c1C(=O)Nc1c[nH]nc1C(=O)N[C@H]1CC[C@H](OC)CC1	=	95
CO[C@H]1CC[C@H](NC(=O)c2n[nH]cc2NC(=O)c2cc3ccccn3n2)CC1	=	0.67
CO[C@H]1CC[C@H](NC(=O)c2n[nH]cc2NC(=O)c2ccc(F)cc2F)CC1	=	4.2
COc1cccc(OC)c1C(=O)Nc1c[nH]nc1C(=O)NC1CCCCC1	=	1200
